Tested on: C3H/10T1/2 cells
Assay: Adipocyte differentiation inhibitory ability (Oil Red O staining)
Assay type: cell-based, mouse
Details: C3H/10T1/2, 10 μg/ml

{"SMILES_INPUT": "CC(=O)O[C@@H]1C[C@H]2C(CO)=C[C@@]3(C=C(C)C[C@H](/C=C(\\C)CCC=C(C)C)O3)O[C@H]2C=C1C", "adipocyte differentiation ability": "remarkably decreased"}
{"SMILES_INPUT": "CC(C)=CCC/C(C)=C/[C@H]1CC(C)=C[C@@]2(C=C(CO)[C@@H]3CC(=O)C(C)=C[C@@H]3O2)O1", "adipocyte differentiation ability": "remarkably decreased"}
{"SMILES_INPUT": "CC(=O)OCC1=C[C@@]2(C=C(C)C[C@H](/C=C(\\C)CCC=C(C)C)O2)O[C@H]2C=C(C)C(=O)C[C@@H]12", "adipocyte differentiation ability": "remarkably decreased"}
{"SMILES_INPUT": "CC(=O)O[C@H]1C[C@H]2C(CO)=C[C@@]3(C=C(C)C[C@H](/C=C(\\C)CCC=C(C)C)O3)O[C@H]2C=C1C", "adipocyte differentiation ability": "remarkably decreased"}
